Items are presented alongside their recorded melting point.

{"Molecule": "c1ccc(-c2nnc3cc(C45CCC(CC4)C5)c(OCc4ccccn4)nn23)cc1", "melting point": "166 to 168 °C"}
{"Molecule": "CN1CCN(C(=O)c2ccc(-c3cnc4c(c3)N(Cc3cc(F)ccc3F)C(=O)C(C)(C)N4)cc2)CC1", "melting point": "204 to 206 °C"}

Now look at this one.
Fill in: melting point of c1ccc(COc2ccc3c(c2)OC[C@@H](c2ccccc2)[C@H]3c2ccc(OCCCCCCN3CCOCC3)cc2)cc1 (racemic) is ___
85.7 to 87.5 °C

----------
Metric: melting point

Some molecules with known melting point results, for comparison:
{"Molecule": "CCC(O)(c1ccc(OCc2ccccc2)cc1)c1cccc(C(F)(F)F)c1 (centres undefined)", "melting point": "50 to 51 °C"}
{"Molecule": "CC(C)[C@H](NC(=O)N(C)Cc1ccccn1)C(=O)N[C@@H](Cc1ccccc1)[C@@H](O)C[C@H](Cc1ccccc1)NC(=O)OCc1cccnc1", "melting point": "69 to 71 °C"}
{"Molecule": "O=c1nc(-c2cc(-c3ccccc3)ccn2)sc2ccccc12", "melting point": "164 to 165 °C"}
{"Molecule": "OC1CSC(Oc2cncc(-c3nccs3)c2)C(O)C1O (centres undefined)", "melting point": "204 °C"}
{"Molecule": "CC12CC(N3CCCCC3)CCC1CCC1C2CCC2(C)C(O)C(N3CCCCC3)CC12 (centres undefined)", "melting point": "176 to 181 °C"}
{"Molecule": "Cn1c(C(F)(F)F)cc(Cl)c(-c2ccc(Cl)c(NS(C)(=O)=O)c2)c1=O", "melting point": "161 to 163 °C"}

Which value of melting point has been reported for O=C(O)c1oc(-c2ccccc2)cc(=O)c1Br in the records?
247 °C

Give its melting point value. Item: NCc1ccc2cc(O)ccc2c1
188 to 192 °C

Return reported melting point; argument: CC1(C)OC(=O)C(c2ccc(-c3cscn3)cc2)=C1c1ccc(S(C)(=O)=O)cc1
216 °C

Can you share its melting point? I mean this molecule: Fc1cc(F)c2oc(CCC#Cc3ccccn3)nc2c1
93.5 to 94 °C

Query: melting point; subject: Cc1ccc(F)c(-c2ccc(S(=O)(=O)N3c4ccccc4CC3C(=O)NCCOc3ccc(CC(=O)O)cc3)cc2)c1 (centres undefined)
82 to 85 °C

What value of measured melting point is listed for Clc1ccc(-c2ccc(Cl)nc2)cc1 ?
113 to 115 °C

Which measured melting point value corresponds to CC(=O)Oc1c(C)cc(C(=O)c2ccc(C(=O)c3cc(C)c(OC(C)=O)c(C)c3)cc2)cc1C ?
255 to 256 °C

Which melting point value belongs to Cn1cc(C(=O)NCc2ccc(Cl)cc2)c(=O)c2cc(I)sc21 ?
236 to 237 °C

----------
The compounds listed here are annotated with their melting point.

Reference set, count: 5
{"Compound": "CNC(=O)c1cc2ccccc2c(-c2ccc(I)cc2)n1", "melting point": "163 to 164 °C"}
{"Compound": "COC(=O)c1c(Sc2ccc(OC)cc2)nc(C(=O)c2ccccc2)n1Cc1cc2c(cc1Cl)OCO2", "melting point": "166 °C"}
{"Compound": "CN(c1cccc2cc(-c3ncc(CN4CCOCC4)s3)[nH]c12)S(=O)(=O)c1cccs1", "melting point": "181 to 182 °C"}
{"Compound": "COc1cc2c(c3c1OC(C)(C)C3)C(c1cccc(Nc3ccccc3)c1)=NC(C)(C)C2", "melting point": "87 to 88 °C"}
{"Compound": "COc1c(C)c(C)c(OC)c(C(O)(c2ccc(C(C)C)cc2)C2CCN(Cc3ccccc3)CC2)c1C (stereo not given)", "melting point": "105 to 108 °C"}

Using the record for CC(C)S(=O)(=O)n1c(N)nc2ccc(C(O)(CC(=O)N(C)C)c3ccccc3)cc21 (stereo not given) , report its melting point.
209 to 210 °C

// lookup melting point for O=C(NC1CC1)N1CCc2[nH]cnc2C1
215 °C

Tell me the measured melting point of O=S1(=O)N=CN(C2CCCCCC2)c2cc(Cl)ccc21 , please.
209 to 211 °C

Could you tell me which melting point is on file for CCC1(C)CN(c2c(F)c(N)c3c(=O)c(C(=O)O)cn(C4CC4)c3c2OC)CCC1NC (stereo not given) ?
164 to 166 °C

Reported melting point for CCN(CC)CCNC(=O)c1cccc2cc3cccc(I)c3nc12 : what is it?
64 to 66 °C
